Test system: EOC-20 cells
Condition info: Table III; MTT viability; by extrapolation through sublethal concentrations
Observable: LD50 (μm)
Give bare numbers, in μm.

O=c1cc(-c2ccccc2)oc2cc(O)ccc12: 125
N#CC(C#N)=Cc1ccc([N+](=O)[O-])c(O)c1: 150
O=c1cc(-c2ccccc2)oc2ccccc12: 7
S=C(S)N1CCCC1 [pyrollidine dithiocarbamate (PDTC), pyrollidine dithiocarbamate]: 90

Your task in this section: give LD50 for each listed record.
1. C[S+]([O-])c1ccc(-c2nc(-c3ccncc3)c(-c3ccc(F)cc3)[nH]2)cc1 (stereo not shown)
2. O=c1cc(-c2ccc(O)cc2)oc2cc(O)cc(O)c12 [4′,5,7-trihydroxy-flavone (apigenin), 4′,5,7-trihydroxy-flavone]
3. O=c1cc(-c2ccccc2)oc2cc(O)cc(O)c12 [Chrysin, 5,7-dihydroxy-flavone]
4. COc1ccc2c(c1)c(CC(=O)O)c(C)n2C(=O)c1ccc(Cl)cc1

Result:
100
87
85
124

###

Tested on: EOC-20 cells
Condition info: mouse
Exercise: state measured LD50 for each of the compounds provided.
Answers are plain numbers, in μm.

Worked examples, 4 compounds total:
O=c1c(O)c(-c2ccc(O)cc2)oc2cc(O)cc(O)c12 [Kaempherol, 3,4′,5,7-tetrahydroxy-flavone]: 70
O=C(/C=C/c1ccc(O)c(O)c1)c1ccc(O)cc1O [butein (2′,4′,3,4-tetrahydroxychalcone), 2′,4′,3,4-tetrahydroxychalcone]: 77
COc1ccc(-c2coc3cc(O)cc(O)c3c2=O)cc1 [4′-methoxy-5,7-dihydroxyisoflavone]: 112
O=c1c(O)c(-c2ccccc2)oc2cc(O)cc(O)c12 [3,5,7-trihydroxy-flavone (galangin), 3,5,7-trihydroxy-flavone]: 58

Request: Which measured LD50 value corresponds to COc1ccc(-c2coc3cc(O)ccc3c2=O)cc1 ?
Result: 126

###

Please go through the items and note down their pIC50.
System: TNFα-Stimulated NO2^− Production in EOC-20 Cells
Assay text: TNFα-stimulated nitrite (NO2−) production in EOC-20 microglial cells, Griess assay
Type: cell-based, mouse
Condition info: Mus musculus; Table III; 10 ng/mL TNFα, 24 hr; by interpolation; read-out: IC50
Experimental: Cells were cultured in 24 well plates until confluent then treated with test agent, which was dissolved at 100× final concentration in dimethylsulfoxide (DMSO), or with vehicle only. Thirty minutes after treatment with test agent, cells were treated with 10 ng/mL recombinant mouse TNFα (Pharmingen, San Diego, Calif. USA). […] Lower IC50 values indicate improved efficacy. […] For each compound, an LD50 value was determined by extrapolation through sublethal concentrations. […]
Give bare numbers, as −log10 of the molar value.

COc1cc(O)c2c(=O)c(-c3ccc(O)cc3)coc2c1 [4′,5-dihydroxy-7-methoxy-isoflavone]: 3.92

Turning now to a further molecule:
Request: # query: pIC50 of entry CN(C)[C@@H]1C(O)=C(C(N)=O)C(=O)[C@@]2(O)C(O)=C3C(=O)c4c(O)cccc4[C@@](C)(O)[C@H]3C[C@@H]12
Result: 4.07

###

Test system: EOC-20 cells
Condition info: Table III; MTT viability; by extrapolation through sublethal concentrations
Observable: LD50

CC(C)(C)[N+]([O-])=Cc1cccc(O)c1: nontoxic
COc1cc(O)c2c(=O)c(-c3ccc(O)cc3)coc2c1 [4′,5-dihydroxy-7-methoxy-isoflavone]: nontoxic
CC(C)(C)[N+]([O-])=Cc1ccccc1O: nontoxic
